measurementTarget: SHP2 enzyme (catalytic domain, amino acid sequence 224-528) (Homo sapiens, UniProt Q06124)
Construct: purchased GenScript
Sequence (Q06124 224-528): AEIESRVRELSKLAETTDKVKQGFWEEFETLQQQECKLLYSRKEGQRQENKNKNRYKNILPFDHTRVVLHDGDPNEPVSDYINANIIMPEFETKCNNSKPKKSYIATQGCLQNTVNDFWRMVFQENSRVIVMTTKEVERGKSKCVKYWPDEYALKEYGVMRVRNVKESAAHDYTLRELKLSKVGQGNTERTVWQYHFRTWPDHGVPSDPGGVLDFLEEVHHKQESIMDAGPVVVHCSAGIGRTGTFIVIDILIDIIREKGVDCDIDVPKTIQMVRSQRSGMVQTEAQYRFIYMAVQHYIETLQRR
measurementProtocol: SHP2 enzyme inhibition assay (DiFMUP substrate, fluorescence)
Format: biochemical
conditionsUsed: SHP2 catalytic domain, DiFMUP substrate, 30 min pre-incubation; read-out: S HP2 I C50
Method: This experiment evaluates the inhibitory effect of the test compounds on SHP2 enzyme activity by detecting the reaction between the human recombinant protein SHP2 enzyme and the substrate. […] A 96-well black half-area microplate (Greiner, catalog #675076) was used. […] The plate was then read on a multi-mode microplate reader (BioTek, Synergy H1) at 340 nm/450 nm fluorescence. Data were analyzed using GraphPad Prism 9.0 software. […]
endpointName: IC50 (nM)

{"molecule": "O=C(Nc1ccc(-c2cc3cc(F)c(-c4nnn[nH]4)cc3n2C2CCC2)cc1)C(=O)Nc1ccc(N2CCOC3(CC3)C2)cc1", "IC50, nM": 113}
{"molecule": "CC1(n2c(-c3ccc(NC(=O)C(=O)Nc4ccc(-c5cnn(C6CCOCC6)c5)cc4)cc3)cc3cc(F)c(-c4nnn[nH]4)cc32)CC1", "IC50, nM": 49}

a: O=C(Nc1ccc(-c2csc(CO)c2)cc1)C(=O)Nc1ccc(-c2cc3cc(F)c(-c4nnn[nH]4)cc3n2C2CCC2)cc1
b: CC1(n2c(-c3ccc(NC(=O)C(=O)Nc4ccc(N5CCC6(CC5)CC(CO)C6)cc4)cc3)cc3cc(F)c(-c4nnn[nH]4)cc32)CCC1
Q) Field: lower recorded IC50 (choose a or b ) In your reply, give the label of the chosen option.
A) a
(a: 66 nM, b: 105 nM)
